assay: Intrinsic clearance in rat liver microsomes was determined; format: ADME, Microsome; settings: read-out: Clearance
Collected microsomal CLint values appear next to each entry.

Some compounds with recorded microsomal CLint:
{"columns": ["SMILES_ENTRY", "ENDPOINT_RESULT"],
 "data": [
  ["CC[C@H](C)C(=O)O[C@H]1C[C@@H](C)C=C2C=C[C@H](C)[C@H](CC[C@@H]3C[C@H](CC(=O)NC)N(Cc4ccc(O)c(OC)c4)C(=O)O3)[C@H]21", "> 500 µL/min/mg"],
  ["CC[C@H](C)C(=O)O[C@H]1C[C@@H](C)C=C2C=C[C@H](C)[C@H](CC[C@@H]3C[C@H](CC(=O)NC)N(Cc4ccc(C(C)(C)O)cc4)C(=O)O3)[C@H]21", "> 500 µL/min/mg"]
]}

# input compound: CC[C@H](C)C(=O)O[C@H]1C[C@@H](C)C=C2C=C[C@H](C)[C@H](CC[C@@H]3C[C@H](CC(=O)NC)N(CCc4ccc(O)c(OC)c4)C(=O)O3)[C@H]21 ; wanted: its microsomal CLint
> 500 µL/min/mg
